# assay-text: Plasma kinetic study of celastrol with and without Schisandrin A
# Assay type: in vivo, Sprague Dawley rats
# particulars: male, Sprague Dawley, rat, plasma, po, 1.8 mg/kg, Group1; rats, celastrol 1.8 mg/kg oral, no Schisandrin A dose stated; read-out: AUC0→t of celastrol
readout-kind: AUC(0-t) (ng·h/mL)
Field: numeric (ng·h/mL). Do not append units.

Input line: Name the recorded AUC(0-t) of the item "CC1=C(O)C(=O)C=C2C1=CC=C1[C@@]2(C)CC[C@@]2(C)[C@@H]3C[C@](C)(C(=O)O)CC[C@]3(C)CC[C@]12C" in your answer.
Output line: 103

---

# assay-text: Plasma kinetic study of colchicine with and without Schisandrin A
# Type: in vivo
# particulars: male, Sprague Dawley, rat, po, 3 mg/kg, Group2, rats, Schisandrin A 0 mg/kg oral 5 min before colchicine 3.0 mg/kg oral
readout-kind: Cmax

Input line: Name the recorded Cmax of the item COc1cc2c(c(OC)c1OC)-c1ccc(OC)c(=O)cc1[C@@H](NC(C)=O)CC2 [colchicine] in your answer.
Output line: 10.2 ng/mL
